Reference source: the supplement of paper PMC6555819

System: THRa:RXRa (NR concentration 90 nM, RXRa partner concentration 90 nM)
procedureText: PBM binding z-score (relative to random genomic background probes); higher = stronger binding; sequences stand for … in GC…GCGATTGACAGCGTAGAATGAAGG
Label rule, in plain words: PBM binding z-score of 2 and up is yes (1), under 2 is no (0).

>  <sequenceData>
AGTAAAAGTTCATCTAGGTAACGTAAGATATGCT

>  <measuredTarget>
THRa:RXRa (NR concentration 90 nM, RXRa partner concentration 90 nM)

>  <group>
yes (1)

$$$$
>  <sequenceData>
CCTACTGGGCCCAAGGTCATTGATTCCAATGCTC

>  <measuredTarget>
THRa:RXRa (NR concentration 90 nM, RXRa partner concentration 90 nM)

>  <group>
yes (1)

$$$$
>  <sequenceData>
ACAGACAGGTGAGTGAAGGGAACTCAGCTGGACG

>  <measuredTarget>
THRa:RXRa (NR concentration 90 nM, RXRa partner concentration 90 nM)

>  <group>
no (0)

$$$$

Problem: Has `CCTAGCAGGCCAATCTGGGTCTCTCAAGGCTTGA` a recorded PBM binding z-score greater than or equal to 2?
Solution: no (0)

Problem: Has `CCCACTGGGGCAAGGTTACCATAACGCACAGCCA` a recorded PBM binding z-score greater than or equal to 2?
Solution: no (0)
